- System: 855422-203-R-J1-PDC complex spheroid viability;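 further: spheroids exposed to compounds for seven days before readout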
- PROCEDURE_DETAILS: Anticancer human tumor 855422-203-R-J1-PDC patient-derived bladder carcinoma cell line growth inhibition [POLQ]; active means viability on the fitted dose curve at most 10% of control; inactive means the rest
- REPORTED_CONDITIONS: second compound 3.16 µM; first compound 0.316 µM
Response enum: 1.0 (active), 0.0 (inactive)

# fetch the recorded call for COc1cccc(OCCCN)c1-c1cc(Nc2cnc(C#N)cn2)n[nH]1 + COC1C(OC(N)=O)C(O)C(Oc2ccc3c(O)c(NC(=O)c4ccc(O)c(CC=C(C)C)c4)c(=O)oc3c2C)OC1(C)C here
1.0

Tell me the assay call for CC1COCCN1c1cc(C2(O)CC3CCC(C2)O3)c2cnn(-c3ccn[nH]3)c2n1 (configuration not stated) + COC1C(OC(N)=O)C(O)C(Oc2ccc3c(O)c(NC(=O)c4ccc(O)c(CC=C(C)C)c4)c(=O)oc3c2C)OC1(C)C please.
0.0

// param item: COc1cccc(OCCCN)c1-c1cc(Nc2cnc(C#N)cn2)n[nH]1 + Nc1ccc(C#CCN(C(=O)Cc2ncc(C(F)(F)F)cc2C(F)(F)F)c2ccc(F)cc2)nn1 ; yields the recorded call
1.0

Record lookup: outcome of this test for CC1COCCN1c1cc(C2(S(C)(=N)=O)CC2)nc(-c2ccnc3[nH]ccc23)n1 (configuration not stated) + COC1C(OC(N)=O)C(O)C(Oc2ccc3c(O)c(NC(=O)c4ccc(O)c(CC=C(C)C)c4)c(=O)oc3c2C)OC1(C)C ?
0.0

Which outcome was assigned to O=C(Nc1ccc(O)c(NS(=O)(=O)c2ccc(F)cc2)c1)c1ccc(-c2ccccc2)cc1 + Nc1ccc(C#CCN(C(=O)Cc2ncc(C(F)(F)F)cc2C(F)(F)F)c2ccc(F)cc2)nn1 in this test?
0.0

Status in this test for COc1cc2cc(C(=O)CCC(=O)O)sc2cc1OC + Nc1ccc(C#CCN(C(=O)Cc2ncc(C(F)(F)F)cc2C(F)(F)F)c2ccc(F)cc2)nn1 ?
0.0

For CNCc1ccc(-c2[nH]c3cc(F)cc4c3c2CCNC4=O)cc1 + Cc1cccc(N(C)C(=O)C2C(O)CCN2c2nc(C)cc(C(F)(F)F)c2C#N)c1 , what call appears in the results of this test?
0.0
